Each entry below carries its reported DC50.
# Target System: BRM (Homo sapiens)
# Construct: endogenous in cells; host or cells: HCC515 and H1944 (NCI-H1944) cells
# Sequence (P51531 whole entry): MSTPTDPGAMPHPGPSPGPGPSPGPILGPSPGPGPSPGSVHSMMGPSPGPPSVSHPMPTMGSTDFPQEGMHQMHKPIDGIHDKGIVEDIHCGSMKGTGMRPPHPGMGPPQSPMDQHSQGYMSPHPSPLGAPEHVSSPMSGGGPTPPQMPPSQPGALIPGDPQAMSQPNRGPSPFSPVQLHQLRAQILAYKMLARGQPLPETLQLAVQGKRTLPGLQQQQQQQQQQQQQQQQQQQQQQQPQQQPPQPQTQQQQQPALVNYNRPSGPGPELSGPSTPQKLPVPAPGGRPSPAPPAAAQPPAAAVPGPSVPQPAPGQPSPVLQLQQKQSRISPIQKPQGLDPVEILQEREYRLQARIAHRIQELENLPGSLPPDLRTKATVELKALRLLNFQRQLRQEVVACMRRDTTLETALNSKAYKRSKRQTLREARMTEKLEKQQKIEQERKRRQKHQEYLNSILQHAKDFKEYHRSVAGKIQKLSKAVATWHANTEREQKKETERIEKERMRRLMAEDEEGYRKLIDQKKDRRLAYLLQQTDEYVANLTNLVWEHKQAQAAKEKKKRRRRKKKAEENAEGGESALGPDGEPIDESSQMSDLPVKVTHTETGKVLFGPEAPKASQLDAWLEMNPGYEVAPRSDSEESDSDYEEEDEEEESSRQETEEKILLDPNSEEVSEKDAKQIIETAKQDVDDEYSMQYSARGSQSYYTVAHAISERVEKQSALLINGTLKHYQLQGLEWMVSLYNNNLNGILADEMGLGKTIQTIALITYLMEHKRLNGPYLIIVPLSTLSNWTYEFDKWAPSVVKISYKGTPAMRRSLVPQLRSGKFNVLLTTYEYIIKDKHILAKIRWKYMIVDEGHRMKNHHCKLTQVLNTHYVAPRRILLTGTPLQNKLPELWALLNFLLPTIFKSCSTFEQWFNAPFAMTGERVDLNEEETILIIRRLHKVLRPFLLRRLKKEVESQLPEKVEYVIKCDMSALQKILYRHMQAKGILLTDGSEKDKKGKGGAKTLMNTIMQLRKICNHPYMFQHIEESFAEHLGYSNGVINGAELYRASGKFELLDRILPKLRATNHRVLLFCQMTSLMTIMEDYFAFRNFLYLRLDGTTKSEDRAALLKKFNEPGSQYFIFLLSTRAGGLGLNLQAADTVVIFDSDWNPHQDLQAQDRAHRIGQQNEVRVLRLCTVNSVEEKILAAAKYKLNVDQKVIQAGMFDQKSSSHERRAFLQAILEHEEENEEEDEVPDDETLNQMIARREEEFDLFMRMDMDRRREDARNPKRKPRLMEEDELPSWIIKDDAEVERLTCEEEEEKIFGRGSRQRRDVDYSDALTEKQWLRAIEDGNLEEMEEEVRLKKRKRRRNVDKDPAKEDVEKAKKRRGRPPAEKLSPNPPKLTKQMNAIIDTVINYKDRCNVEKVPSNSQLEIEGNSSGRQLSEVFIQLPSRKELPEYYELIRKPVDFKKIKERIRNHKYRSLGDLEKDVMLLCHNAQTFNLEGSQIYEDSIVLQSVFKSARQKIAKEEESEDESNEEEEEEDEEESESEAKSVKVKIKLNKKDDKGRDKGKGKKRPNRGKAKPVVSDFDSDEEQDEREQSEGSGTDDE
# Assay Details: Cell assays to determine DC50 and Dmax (nuclear BRM immunofluorescence after Ab-CIDE treatment)
# Format: cell-based
# Measurement Conditions: NCI-H1944 cells, 24 h drug treatment, Ab target TfR2, conjugate DAR 5.41-6.14
Reply numerically in nM, unit not repeated.

Record excerpt, results attached:
| Compound | Result Units | DC50 |
| --- | --- | --- |
| Cc1ncsc1-c1ccc([C@H](C)NC(=O)[C@@H]2C[C@@H](O)CN2C(=O)[C@@H](c2cc(OCCN3CCN(CCOc4cc(N5C6CCC5CN(c5cc(-c7ccccc7OCc7ccc(NC(=O)[C@H](CCCCN(C)C)NC(=O)C8(C(=O)NCCCCCNC(=O)[C@H](CO)N9C(=O)C=CC9=O)CCC8)cc7)nnc5N)C6)ccn4)[C@H](C)C3)no2)C(C)C)cc1.O=C(O)C(F)(F)F [Hy-B-CIDE-1] | nM | 128 |
| CC(C)[C@@H](C(=O)N1C[C@H](O)C[C@H]1C(=O)N[C@@H](C)c1ccc(C#N)cc1)c1cc(OCCN2CCC(O[C@H]3C[C@H](Oc4cc(N5C6CCC5CN(c5cc(-c7ccccc7OCc7ccc(NC(=O)[C@H](CCCCN(C)C)NC(=O)C8(C(=O)NCCCCCNC(=O)[C@H](CO)N9C(=O)C=CC9=O)CCC8)cc7)nnc5N)C6)ccn4)C3)CC2)no1 [Hy-B-CIDE-12] | nM | 12600 |
| CC(C)[C@@H](C(=O)N1C[C@H](O)C[C@H]1C(=O)N[C@@H](C)c1ccc(C#N)cc1)c1cc(OCCN2CCC(O[C@H]3C[C@H](Oc4cc(N5C6CCC5CN(c5cc(-c7ccccc7OCc7ccc(NC(=O)[C@H](CCCCN(C)C)NC(=O)C8(C(=O)NCCCCCN(C)CCN9C(=O)C=CC9=O)CCC8)cc7)nnc5N)C6)ccn4)C3)CC2)no1 [Hy-B-CIDE-11] | nM | 23200 |
| Cc1ncsc1-c1ccc([C@H](C)NC(=O)[C@@H]2C[C@@H](O)CN2C(=O)[C@@H](c2cc(OCCN3CCN(CCOc4cc(N5C6CCC5CN(c5cc(-c7ccccc7OCc7ccc(NC(=O)[C@H](CCCCN(C)C)NC(=O)C8(C(=O)NCCCCCN(C)CCN9C(=O)C=CC9=O)CCC8)cc7)nnc5N)C6)ccn4)[C@H](C)C3)no2)C(C)C)cc1.O=C(O)C(F)(F)F [Hy-B-CIDE-8] | nM | 85.6 |
| CC(C)[C@@H](C(=O)N1C[C@H](O)C[C@H]1C(=O)N[C@@H](C)c1ccc(C#N)cc1)c1cc(OCCN2CCC(O[C@H]3C[C@H](Oc4cc(N5C6CCC5CN(c5cc(-c7ccccc7OCc7ccc(NC(=O)[C@H](CCCCN(C)C)NC(=O)C8(C(=O)NCCN(C)CCN9C(=O)C=CC9=O)CCC8)cc7)nnc5N)C6)ccn4)C3)CC2)no1 [Hy-B-CIDE-7] | nM | 205 |

Continue with the next compound.
Measured DC50 of Cc1ncsc1-c1ccc([C@H](C)NC(=O)[C@@H]2C[C@@H](O)CN2C(=O)[C@@H](c2cc(OCCN3CCN(CCOc4cc(N5C6CCC5CN(c5cc(-c7ccccc7OCc7ccc(NC(=O)[C@H](CCCCN(C)C)NC(=O)C8(C(=O)NCCN(C)CCN9C(=O)C=CC9=O)CCC8)cc7)nnc5N)C6)ccn4)[C@H](C)C3)no2)C(C)C)cc1.O=C(O)C(F)(F)F [Hy-B-CIDE-5] : 412
